Quick list: GI50 per entry.
- Test system: SNB-75 CNS
- runDescription: NCI tumour cell line growth inhibition, 48 h

Below, each entry is followed by its recorded GI50 result.
compound: C=CCn1c(C)nc2cc(Nc3nc(Nc4ccc5nc(C)n(CC=C)c5c4)c4ccccc4n3)ccc21
GI50: 0.745 µM
//
compound: CCOC(=O)[C@@H](C)C[C@H](Cc1ccccc1)NC(=O)c1csc([C@@H](C[C@H](C(C)C)N(C)C(=O)[C@@H](NC(=O)[C@H]2C[C@H](O[Si](C)(C)C(C)(C)C)CCN2C)C(C)C)OC(C)=O)n1
GI50: 0.205 µM
//
compound: CN1CCN(Cc2ccc(NC(=O)c3cncc(C#Cc4cnc(N)c5ccc(F)cc45)c3)cc2C(F)(F)F)CC1
GI50: 1.3 µM

Lookup: For the compound COc1cc(/C=C/c2cc(C(F)(F)F)[nH]c(=O)n2)ccc1OCc1ccccc1F , what GI50 is on record?
Found: 21 µM

Lookup: Need GI50, item COc1cc(-c2cnn(C)c2)ccc1Nc1ncc2ccnc(N[C@@H](C)C(C)(C)C)c2n1
Found: 3.26 µM

Lookup: Entry under review: C=CC(=O)N1CCCC(n2nc(-c3ccc(Oc4ccccc4)cc3)c3c(N)ncnc32)C1 (stereo not given) . Reported GI50?
Found: 3.55 µM

Lookup: # GI50 lookup, item Nc1c(C(=O)c2ccccc2)sc2nc(-c3cccs3)ccc12
Found: 0.187 µM

Lookup: Which value of GI50 has been reported for CN(C)CCNc1nc2ccccc2c2c1c1c(n2Cc2ccccc2)-c2ccccc2C1=O in the records?
Found: 14.4 µM

Lookup: Fill in the blank: the reported GI50 of CC[N+](CC)=c1ccc2nc3c(cc(N)c4ccccc43)oc-2c1 is ____.
Found: 0.61 µM

Lookup: Any idea what its GI50 is? The compound is COc1cccc(-c2nc3sccn3c2-c2ccnc(NCCNC(=O)Nc3cccc(C(F)(F)F)c3)n2)c1
Found: 3.41 µM

Lookup: Returns the measured GI50 for the input compound. Input: CC[N+](CCCCCCCCCC[N+](CC)(c1ccccn1)c1ccccn1)(c1ccccn1)c1ccccn1
Found: 1.25 µM

Lookup: Dear colleague, I am looking for the recorded GI50 of the following compound: O=C(Nc1ccccc1C(F)(F)F)c1cccc(NC2=C(Cl)C(=O)N(Cc3ccccc3)C2=O)c1
Found: 30.7 µM

Lookup: Which GI50 is listed for Cc1ccc(C(=O)c2oc3ccc4c(C)cc(=O)oc4c3c2C)cc1 ?
Found: 4.19 µM

Lookup: Could you share which GI50 value was measured for COC(=O)CCC/C=C\C[C@H]1C=CC(=O)/C1=C/C[C@@H](O)CCc1cccc(C(F)(F)F)c1 ?
Found: 5.46 µM

Lookup: Field request: GI50 | item: Oc1ccc(Br)cc1Sc1cc(Br)ccc1O
Found: 4.29 µM

----------
Entries and their GI50
- Test system: HS 578T breast
- runDescription: NCI tumour cell line growth inhibition, 48 h

Below, 2 molecules whose answers are already recorded.
structureAsSmiles: CCOc1ccc(/C=C/C(=O)c2ccccc2)cc1
targetOfAssay: HS 578T breast
GI50: 20.4 µM
--
structureAsSmiles: Cc1cc(/C=C2\SC(=Nc3ccccc3)N(C3CCCC3)C2=O)c(C)n1-c1ccc(Cl)cc1
targetOfAssay: HS 578T breast
GI50: > 100 µM

Lookup: Given the entry Clc1nc(Oc2ccccc2)nc(-c2cn(-c3ccccc3)c3ccccc23)n1 , report its measured GI50.
Found: 4.66 µM

----------
We begin with a simple list: items and their reported GI50.
- Test system: UACC-257 melanoma
- runDescription: NCI tumour cell line growth inhibition, 48 h

structureAsSmiles: COc1cc(OC)c(/C=C/c2ccc3ccccc3[n+]2C)c(OC)c1
GI50: 0.49 µM

Lookup: For the compound Oc1ccc(Br)cc1Sc1cc(Br)ccc1O , what GI50 is on record?
Found: 5.2 µM

Lookup: Would you mind telling me what GI50 value was observed for COc1cc(-c2cnn(C)c2)ccc1Nc1ncc2ccnc(N[C@@H](C)C(C)(C)C)c2n1 ?
Found: > 100 µM

Lookup: Report GI50 for COc1cc(/C=C/c2cc(C(F)(F)F)[nH]c(=O)n2)ccc1OCc1ccccc1F please.
Found: 7.51 µM

Lookup: Entry Cc1cc(/C=C2\SC(=Nc3ccccc3)N(C3CCCC3)C2=O)c(C)n1-c1ccc(Cl)cc1 : reported GI50 = ?
Found: > 100 µM

Lookup: // query GI50 value for entry O=[N+]([O-])c1ccc2[nH]cc(-c3c4ccsc4cc4[nH]c5ccc([N+](=O)[O-])cc5c34)c2c1
Found: 2.92 µM

----------
- Tested on: NCI-H226 lung
- runDescription: NCI tumour cell line growth inhibition, 48 h
Entries and their TGI
# number only, unit µM dropped from output

Answered examples (2):
molecule: O=C1NC(N/N=C\c2ccccc2)=N/C1=C/c1ccc(Cl)cc1
TGI (µM): 43.3
--
molecule: N#Cc1c2c(c(N3CCOCC3)n3c1nc1ccccc13)CCCC2
TGI (µM): 32.5

Lookup: What value of TGI on NCI-H226 lung does COC1=CC23C=CC1[C@@H](c1ccccc1)C2=C(C)C(=O)N3C(=O)NC1CCCCC1 (some centres not stated) have?
Found: 46.6

Lookup: Under NCI-H226 lung: TGI value of COc1ccc(NC(=O)C2C(=O)N(c3ccc(OC)cc3)C(=O)/C2=N/O)cc1 (configuration not stated) ?
Found: 55.7

----------
- Tested on: RXF 393 renal
- runDescription: NCI tumour cell line growth inhibition, 48 h
Reported TGI values are given for each entry in this list.
The reply should contain only the number, in µM.

molecule: O=C1C=C(c2c(O)ccc3ccccc23)c2ccccc2C1=O
targetOfAssay: RXF 393 renal
units: µM
TGI: 5.06

Lookup: Tell me the measured TGI of N#CC(C#N)=C(N)/C(C#N)=C\c1ccnc2ccccc12 , please.
Found: 35.3

Lookup: Reported TGI for COc1cc2c(cc1OCc1ccccc1)N=C[C@@H]1C/C(=C/C(=O)NCCCN3C(=O)c4cccc5cccc(c45)C3=O)CN1C2=O : what is it?
Found: 0.651

Lookup: Form field: reported TGI of Cc1nc2ccc(C(F)(F)F)cc2nc1Nc1ccc(Cl)c(Cl)c1
Found: 19.1

Lookup: Any idea what TGI was measured for COc1cccc(-c2nc3sccn3c2-c2ccnc(NCCNC(=O)Nc3cccc(C(F)(F)F)c3)n2)c1 ?
Found: 3.65

Lookup: What does the record list as TGI for COc1cc2nc(-c3ccc(C(F)(F)F)cc3)cc(OCCCN3CCOCC3)c2cc1OC ?
Found: 3.65

Lookup: Which value of TGI has been reported for COC(=O)CCC/C=C\C[C@H]1C=CC(=O)/C1=C/C[C@@H](O)CCc1cccc(C(F)(F)F)c1 in the records?
Found: 3.79

Lookup: State the recorded TGI for this entry: C=CC(=O)N1CCCC(n2nc(-c3ccc(Oc4ccccc4)cc3)c3c(N)ncnc32)C1 (configuration not stated)
Found: 11.4

Lookup: Need TGI of COc1cc(/C=C/c2cc(C(F)(F)F)[nH]c(=O)n2)ccc1OCc1ccccc1F , thanks.
Found: 8.78

----------
- Tested on: DU-145 prostate
- runDescription: NCI tumour cell line growth inhibition, 48 h
Where a SMILES comes first, the peptide text is derived from it. [ ]: non-standard residue; d: D form. The star is where a group is joined. Cbz = O=C(OCc1ccccc1)*; Boc = CC(C)(C)OC(=O)*; Aib = CC(C)(N)C(=O)O; OBn = c1ccc(CO*)cc1; OtBu = CC(C)(C)O*; βAla = NCCC(=O)O
TGI values for the compounds below.

Lookup: Recorded TGI of CC(C)(C)OC(=O)CC(NC(=O)OC(C)(C)C)C(=O)NC(CCCCNC(=O)OCc1ccccc1)C(=O)NC(C)(C)C(=O)NCCC(=O)OCc1ccccc1 (stereo not given) (Boc-D(OtBu)K(Cbz)[Aib][βAla]-OBn; configuration not given here) , please.
Found: > 100 µM

----------
- Test system: MDA-MB-435
// classify into active, inactive

Sample answers from the record:
molecule: CN1CCN(Cc2ccc(NC(=O)c3cncc(C#Cc4cnc(N)c5ccc(F)cc45)c3)cc2C(F)(F)F)CC1
targetOfAssay: MDA-MB-435
assignedClass: inactive
//
molecule: CC1=CC[C@@H]2CC[C@]3(C)[C@H](CC[C@@H]4[C@@]5(C)CCCNC(C)(C)[C@@H]5CC[C@]43C)[C@H]2[C@@H]1C
targetOfAssay: MDA-MB-435
assignedClass: inactive
//
molecule: S=C(Nc1ccc(-c2nc3ccccc3[nH]2)cc1)NC1CCCCC1
targetOfAssay: MDA-MB-435
assignedClass: inactive
//
molecule: COC(=O)CCC/C=C\C[C@H]1C=CC(=O)/C1=C/C[C@@H](O)CCc1cccc(C(F)(F)F)c1
targetOfAssay: MDA-MB-435
assignedClass: inactive
//
molecule: COc1cc(OC2OC(C)C(O)C(O)C2O)cc2oc(-c3ccc(O)cc3)c(CC=C(C)C)c(=O)c12 (configuration not stated)
targetOfAssay: MDA-MB-435
assignedClass: inactive
//
molecule: O=c1ccn(C2OC(CO)C(O)C2O)c(=O)[nH]1 (configuration not stated)
targetOfAssay: MDA-MB-435
assignedClass: inactive
//
molecule: CN(C)CCNc1nc2ccccc2c2c1c1c(n2Cc2ccccc2)-c2ccccc2C1=O
targetOfAssay: MDA-MB-435
assignedClass: inactive
//
molecule: COc1cc2c(cc1OCc1ccccc1)N=C[C@@H]1C/C(=C/C(=O)NCCCN3C(=O)c4cccc5cccc(c45)C3=O)CN1C2=O
targetOfAssay: MDA-MB-435
assignedClass: inactive

Lookup: What classification did O=C(Nc1ccc(Cl)cc1)Nc1ccc(Cl)c(Cl)c1 end up with in this test?
Found: inactive

Lookup: GET /call?item= COc1cc2nc(-c3ccc(C(F)(F)F)cc3)cc(OCCCN3CCOCC3)c2cc1OC returns the recorded outcome of this test.
Found: inactive

Lookup: How did this test come out for Clc1nc(Oc2ccccc2)nc(-c2cn(-c3ccccc3)c3ccccc23)n1 ?
Found: inactive

Lookup: What outcome does the record of this test show for COc1cc(OC)c(/C=C/c2ccc3ccccc3[n+]2C)c(OC)c1 ?
Found: active
